Source: the supplement of paper PMC7877785

measurement notes: self-splicing fitness, log relative to wild type (ln ratio); higher = more splicing; Tetrahymena group I intron in knt gene, E. coli kanamycin selection, DiMSum; sequences stand for … in CUCUCU…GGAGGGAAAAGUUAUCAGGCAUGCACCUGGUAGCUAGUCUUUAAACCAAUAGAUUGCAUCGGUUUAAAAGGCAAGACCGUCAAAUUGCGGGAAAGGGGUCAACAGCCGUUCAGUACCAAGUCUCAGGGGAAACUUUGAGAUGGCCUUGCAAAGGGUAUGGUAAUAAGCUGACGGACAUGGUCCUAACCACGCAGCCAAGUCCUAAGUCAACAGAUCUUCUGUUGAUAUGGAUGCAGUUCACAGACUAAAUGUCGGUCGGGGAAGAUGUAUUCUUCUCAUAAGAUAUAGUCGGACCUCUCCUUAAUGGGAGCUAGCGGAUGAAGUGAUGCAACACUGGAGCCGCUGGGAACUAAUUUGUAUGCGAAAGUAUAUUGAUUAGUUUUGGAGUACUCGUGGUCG;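 note: selection with 25 µg/mL kanamycin versus none on LB agar overnight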
experimental parameters: 37 °C
measurement name: self-splicing fitness (ln)
In your answer, state the number alone without any accompanying words.

| residues | self-splicing fitness (ln) |
| --- | --- |
| AGCAAGCAAUAUUACGAGUU | -1.55 |
| AAAGAGCAAUAUUACGGGCG | -3.1 |
| GCCCAGCAAUAUUACGCCGG | -2.9 |
| GGAUAGCAAUAUUACGUCUC | -2.16 |
| GCUGAGCAAUAUUACGUGCA | -0.958 |
| AACGAGCAAUAUUACGGUAG | -3.17 |
| CGAAAGCAAUAUUACGAAGG | -1.03 |
| CCAUAGCAAUAUUACGGAGA | -3.35 |

Here is the next item to consider.
Query: Consider the sequence shown here: AACAAGCAAUAUUACGGUUG What is its recorded self-splicing fitness (ln)?
Reply: -1.64
